Data credit: patent US9243281B2

Tested on: hippocampal neurogenesis (Dentate Gyrus)
test_details: in vivo neurogenesis assay (BrdU+ cells in dentate gyrus)
Parameters: species or system mice
run_conditions: living mice; vehicle (DMSO) 7.3
value_kind: Neurogenesis # BrdU+ Cells (X10E06)/mm3 Dentate Gyrus

Enquiry: Give Neurogenesis # BrdU+ Cells (X10E06)/mm3 Dentate Gyrus for the following compound: NC(=O)c1ccc2c(c1)c1cc(Br)ccc1n2CC(O)COc1ccccc1 (stereo not drawn)
Return: 14.5 (X10E06)/mm3

Enquiry: Give Neurogenesis # BrdU+ Cells (X10E06)/mm3 Dentate Gyrus for the following compound: COc1ccc([C@H](CN(C)C)C2(O)CCCCC2)cc1 [S124, Effexor, reference compound]
Return: 8.9 (X10E06)/mm3

Enquiry: Give Neurogenesis # BrdU+ Cells (X10E06)/mm3 Dentate Gyrus for the following compound: "NC(=O)c1ccc2[nH]c3ccc(Br)cc3c2c1"
Return: 7.9 (X10E06)/mm3

Enquiry: Give Neurogenesis # BrdU+ Cells (X10E06)/mm3 Dentate Gyrus for the following compound: O=S(=O)(CC(O)Cn1c2ccc(Br)cc2c2cc(Br)ccc21)c1cccc(O)c1 (stereo not drawn)
Return: 11.9 (X10E06)/mm3

Enquiry: Give Neurogenesis # BrdU+ Cells (X10E06)/mm3 Dentate Gyrus for the following compound: OC(COc1ccccc1)Cn1c2ccncc2c2cc(Br)ccc21 (stereo not drawn)
Return: 7.7 (X10E06)/mm3

Enquiry: Give Neurogenesis # BrdU+ Cells (X10E06)/mm3 Dentate Gyrus for the following compound: OC(CNc1ccccc1)Cn1c2ccc(I)cc2c2cc(I)ccc21 (stereo not drawn)
Return: 8.3 (X10E06)/mm3

Enquiry: Give Neurogenesis # BrdU+ Cells (X10E06)/mm3 Dentate Gyrus for the following compound: COc1cccc(NCC(Cn2c3ccc(Br)cc3c3cc(Br)ccc32)OC)c1 (stereo not drawn)
Return: 11.6 (X10E06)/mm3

Enquiry: Give Neurogenesis # BrdU+ Cells (X10E06)/mm3 Dentate Gyrus for the following compound: COc1cccc(SCC(F)Cn2c3ccc(Br)cc3c3cc(Br)ccc32)c1 (stereo not drawn)
Return: 13.7 (X10E06)/mm3

Enquiry: Give Neurogenesis # BrdU+ Cells (X10E06)/mm3 Dentate Gyrus for the following compound: O=C1CC2(CCCC2)CC(=O)N1CCCCN1CCN(c2ncccn2)CC1 [S127, Buspar, reference compound]
Return: 6.9 (X10E06)/mm3

----------
System: hippocampal neurogenesis (Dentate Gyrus)
test_details: in vivo neurogenesis assay (BrdU+ cells in dentate gyrus)
Parameters: species or system mice
run_conditions: living mice; vehicle (DMSO) 7.3
So I've got a bunch of molecules here, and I need their Neurogenesis # BrdU+ Cells (X10E06)/mm3 Dentate Gyrus values.

Enquiry: Give Neurogenesis # BrdU+ Cells (X10E06)/mm3 Dentate Gyrus for the following molecule: C#CCN(C)[C@H](C)Cc1ccccc1 [S117, Selegiline, reference compound]
Return: 8.1 (X10E06)/mm3

Enquiry: Give Neurogenesis # BrdU+ Cells (X10E06)/mm3 Dentate Gyrus for the following molecule: O=S(=O)(CC(O)Cn1c2ccc(Br)cc2c2cc(Br)ccc21)c1ccccc1 (centres unmarked) [S28]
Return: 13.6 (X10E06)/mm3

Enquiry: Give Neurogenesis # BrdU+ Cells (X10E06)/mm3 Dentate Gyrus for the following molecule: COc1cccc(NCC(O)CN2c3ccccc3CCc3ccccc32)c1 (centres unmarked) [S158]
Return: 12.5 (X10E06)/mm3

Enquiry: Give Neurogenesis # BrdU+ Cells (X10E06)/mm3 Dentate Gyrus for the following molecule: OC(CN1c2ccccc2CCc2ccccc21)Cn1c2ccccc2c2ccccc21 (centres unmarked) [S133]
Return: 10.1 (X10E06)/mm3

Enquiry: Give Neurogenesis # BrdU+ Cells (X10E06)/mm3 Dentate Gyrus for the following molecule: COCC(O)Cn1c2ccc(Br)cc2c2cc(Br)ccc21 (centres unmarked) [S19]
Return: 10.5 (X10E06)/mm3

Enquiry: Give Neurogenesis # BrdU+ Cells (X10E06)/mm3 Dentate Gyrus for the following molecule: CNCCCC1c2ccccc2C=Cc2ccccc21.Cl [S90, Protriptyline, reference compound]
Return: 11.1 (X10E06)/mm3

Enquiry: Give Neurogenesis # BrdU+ Cells (X10E06)/mm3 Dentate Gyrus for the following molecule: CC(C(=O)O)n1c2ccc(Br)cc2c2cc(Br)ccc21 (centres unmarked) [S211]
Return: 11.5 (X10E06)/mm3

Enquiry: Give Neurogenesis # BrdU+ Cells (X10E06)/mm3 Dentate Gyrus for the following molecule: CS(=O)(=O)NC(=O)Cn1c2ccc(Br)cc2c2cc(Br)ccc21 [S232]
Return: 8.4 (X10E06)/mm3

Enquiry: Give Neurogenesis # BrdU+ Cells (X10E06)/mm3 Dentate Gyrus for the following molecule: O=C(O)Cn1c2ccc(Br)cc2c2cc(C(=O)O)ncc21 [S227]
Return: 12.9 (X10E06)/mm3

Enquiry: Give Neurogenesis # BrdU+ Cells (X10E06)/mm3 Dentate Gyrus for the following molecule: O=C(O)c1cc2c3cc(Br)ccc3n(CC(O)COc3ccccc3)c2cn1 (centres unmarked) [S173]
Return: 12.8 (X10E06)/mm3

Enquiry: Give Neurogenesis # BrdU+ Cells (X10E06)/mm3 Dentate Gyrus for the following molecule: COc1ccc(S(=O)(=O)CC(F)Cn2c3ccc(Br)cc3c3cc(Br)ccc32)cc1 (centres unmarked) [S83]
Return: 12.5 (X10E06)/mm3

Enquiry: Give Neurogenesis # BrdU+ Cells (X10E06)/mm3 Dentate Gyrus for the following molecule: OC(CCNc1ccccc1)Cn1c2ccc(Br)cc2c2cc(Br)ccc21 (centres unmarked) [S32]
Return: 13.8 (X10E06)/mm3

Enquiry: Give Neurogenesis # BrdU+ Cells (X10E06)/mm3 Dentate Gyrus for the following molecule: COc1cccc(S(=O)(=O)CC(F)Cn2c3ccc(Br)cc3c3cc(Br)ccc32)c1 (centres unmarked) [S81]
Return: 12.6 (X10E06)/mm3

Enquiry: Give Neurogenesis # BrdU+ Cells (X10E06)/mm3 Dentate Gyrus for the following molecule: CNCC(F)CN1c2ccccc2CCc2ccccc21 (centres unmarked) [S152]
Return: 13.4 (X10E06)/mm3

Enquiry: Give Neurogenesis # BrdU+ Cells (X10E06)/mm3 Dentate Gyrus for the following molecule: OC(Cn1c2ccc(Br)cc2c2cc(Br)ccc21)Cn1c2ccc(Br)cc2c2cc(Br)ccc21 [S34]
Return: 7.6 (X10E06)/mm3

Enquiry: Give Neurogenesis # BrdU+ Cells (X10E06)/mm3 Dentate Gyrus for the following molecule: NC(=O)Cn1c2ccc(Br)cc2c2cc(Br)ccc21 [S213]
Return: 6.5 (X10E06)/mm3

Enquiry: Give Neurogenesis # BrdU+ Cells (X10E06)/mm3 Dentate Gyrus for the following molecule: OC(COc1ccccn1)Cn1c2ccc(Br)cc2c2cc(Br)ccc21 (centres unmarked) [S147]
Return: 13.3 (X10E06)/mm3

Enquiry: Give Neurogenesis # BrdU+ Cells (X10E06)/mm3 Dentate Gyrus for the following molecule: CN(C)C(=O)Cn1c2ccc(Br)cc2c2cc(Br)ccc21 [S215]
Return: 8.3 (X10E06)/mm3

Enquiry: Give Neurogenesis # BrdU+ Cells (X10E06)/mm3 Dentate Gyrus for the following molecule: COc1cccc(NCC(O)Cn2c3ccc(C)cc3c3cc(Br)ccc32)c1 (centres unmarked) [S14]
Return: 13.5 (X10E06)/mm3

Enquiry: Give Neurogenesis # BrdU+ Cells (X10E06)/mm3 Dentate Gyrus for the following molecule: COc1cccc(N(C)CC(O)Cn2c3ccc(Br)cc3c3cc(Br)ccc32)c1 (centres unmarked) [S1]
Return: 10.8 (X10E06)/mm3

Enquiry: Give Neurogenesis # BrdU+ Cells (X10E06)/mm3 Dentate Gyrus for the following molecule: Brc1ccc2c(c1)c1cc(Br)ccc1n2CCCNc1ccccc1 [S33]
Return: 11.6 (X10E06)/mm3

Enquiry: Give Neurogenesis # BrdU+ Cells (X10E06)/mm3 Dentate Gyrus for the following molecule: CC(C)(O)Cn1c2ccc(Br)cc2c2cc(Br)ccc21 [S169]
Return: 9.2 (X10E06)/mm3

Enquiry: Give Neurogenesis # BrdU+ Cells (X10E06)/mm3 Dentate Gyrus for the following molecule: NCC(O)CN1c2ccccc2CCc2ccccc21 (centres unmarked) [S140]
Return: 11.7 (X10E06)/mm3

Enquiry: Give Neurogenesis # BrdU+ Cells (X10E06)/mm3 Dentate Gyrus for the following molecule: OC(CCc1ccccc1)Cn1c2ccc(Br)cc2c2cc(Br)ccc21 (centres unmarked) [S21]
Return: 8.8 (X10E06)/mm3

Enquiry: Give Neurogenesis # BrdU+ Cells (X10E06)/mm3 Dentate Gyrus for the following molecule: FC(F)(COc1ccccc1)Cn1c2ccc(Br)cc2c2cc(Br)ccc21 [S56]
Return: 8.4 (X10E06)/mm3

Enquiry: Give Neurogenesis # BrdU+ Cells (X10E06)/mm3 Dentate Gyrus for the following molecule: N#CN1CCc2c(c3cc(Br)ccc3n2CC(O)COc2ccccc2)C1 (centres unmarked) [S107]
Return: 7.3 (X10E06)/mm3

Enquiry: Give Neurogenesis # BrdU+ Cells (X10E06)/mm3 Dentate Gyrus for the following molecule: CCOC(=O)c1cc2c(cn1)[nH]c1ccc(Br)cc12 [S205]
Return: 14.6 (X10E06)/mm3

Enquiry: Give Neurogenesis # BrdU+ Cells (X10E06)/mm3 Dentate Gyrus for the following molecule: CC(=O)NCC(F)Cn1c2ccc(Br)cc2c2cc(Br)ccc21 (centres unmarked) [S218]
Return: 9.5 (X10E06)/mm3

Enquiry: Give Neurogenesis # BrdU+ Cells (X10E06)/mm3 Dentate Gyrus for the following molecule: O=S(=O)(CC(O)Cn1c2ccc(Cl)cc2c2cc(Cl)ccc21)c1ccccc1 (centres unmarked) [S52]
Return: 10.8 (X10E06)/mm3

Enquiry: Give Neurogenesis # BrdU+ Cells (X10E06)/mm3 Dentate Gyrus for the following molecule: N#Cc1cc2c3cc(Br)ccc3n(CC(O)COc3ccccc3)c2cn1 (centres unmarked) [S192]
Return: 10.5 (X10E06)/mm3

Enquiry: Give Neurogenesis # BrdU+ Cells (X10E06)/mm3 Dentate Gyrus for the following molecule: N[C@@H](Cc1c[nH]c2ccccc12)C(=O)O [S248]
Return: 10.1 (X10E06)/mm3

Enquiry: Give Neurogenesis # BrdU+ Cells (X10E06)/mm3 Dentate Gyrus for the following molecule: Nc1ccc(SCC(O)Cn2c3ccc(Br)cc3c3cc(Br)ccc32)cc1 (centres unmarked) [S96]
Return: 8.7 (X10E06)/mm3

Enquiry: Give Neurogenesis # BrdU+ Cells (X10E06)/mm3 Dentate Gyrus for the following molecule: NC(Cc1c[nH]c2ccc(Br)cc12)C(=O)O (centres unmarked) [S207]
Return: 16.2 (X10E06)/mm3

Enquiry: Give Neurogenesis # BrdU+ Cells (X10E06)/mm3 Dentate Gyrus for the following molecule: [N-]=[N+]=Nc1cccc(NCC(O)Cn2c3ccc(Br)cc3c3cc(Br)ccc32)c1 (centres unmarked) [S36]
Return: 8.9 (X10E06)/mm3

Enquiry: Give Neurogenesis # BrdU+ Cells (X10E06)/mm3 Dentate Gyrus for the following molecule: N#Cc1cc2c(cn1)[nH]c1ccc(Br)cc12 [S221]
Return: 14.8 (X10E06)/mm3

Enquiry: Give Neurogenesis # BrdU+ Cells (X10E06)/mm3 Dentate Gyrus for the following molecule: [O-][n+]1ccc2c(c1)c1cc(Br)ccc1n2CC(O)COc1ccccc1 (centres unmarked) [S195]
Return: 9.0 (X10E06)/mm3

Enquiry: Give Neurogenesis # BrdU+ Cells (X10E06)/mm3 Dentate Gyrus for the following molecule: CC(O)(COc1ccccc1)Cn1c2ccc(C#N)cc2c2cc(C#N)ccc21 (centres unmarked) [S177]
Return: 13.9 (X10E06)/mm3

Enquiry: Give Neurogenesis # BrdU+ Cells (X10E06)/mm3 Dentate Gyrus for the following molecule: OC(COc1ccccc1)Cn1c2ccc(Br)cc2c2cc(Br)cnc21 (centres unmarked) [S187]
Return: 12.6 (X10E06)/mm3

Enquiry: Give Neurogenesis # BrdU+ Cells (X10E06)/mm3 Dentate Gyrus for the following molecule: OC(CSc1ccccc1)CN1c2ccccc2CCc2ccccc21 (centres unmarked) [S134]
Return: 9.7 (X10E06)/mm3

Enquiry: Give Neurogenesis # BrdU+ Cells (X10E06)/mm3 Dentate Gyrus for the following molecule: O=S(=O)(C[C@@H](O)Cn1c2ccc(Br)cc2c2cc(Br)ccc21)c1ccccc1 [S50]
Return: 16.2 (X10E06)/mm3

Enquiry: Give Neurogenesis # BrdU+ Cells (X10E06)/mm3 Dentate Gyrus for the following molecule: OC(CNc1cccc2ccccc12)Cn1c2ccc(Cl)cc2c2cc(Cl)ccc21 (centres unmarked) [S184]
Return: 6.7 (X10E06)/mm3
